Taken from the supplement of paper PMC10567573.

B1: MTMR15 (parent)
chain: FSPDFTLRNTLKSTSEDSLVKQEC

- Variants of: B1
- protocol.summary: protein stability index of a GFP-peptide fusion (GPS, HEK-293T) (PSI 1-6); higher = more stable;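 note: lentivirally expressed fusions sorted by FACS into six bins by GFP to DsRed ratio, PSI derived from sequencing read proportions per bin multiplied by bin number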
- measurement.conditions: c terminus: a fixed tail appended
measurement.name: protein stability index

Use the examples below as a reference point.
mutation.descriptor: C24F
protein stability index: 2.63
--
mutation.descriptor: S15W
protein stability index: 2.02
--
mutation.descriptor: Q22P
protein stability index: 1.67
--
mutation.descriptor: R8N
protein stability index: 1.58
--
mutation.descriptor: T10F
protein stability index: 2.7
--
mutation.descriptor: S2D
protein stability index: 5

For each of the variants below, state protein stability index.
1. E16K
2. S15K
3. L19D
4. L19A
5. R8K

1: 1.75; 2: 1.73; 3: 2.37; 4: 1.7; 5: 1.7

For each of the variants below, state protein stability index.
1. C24P
2. P3L
3. E23A
4. S2T
5. E23H
6. E16V
7. L19M
8. T14W

2.75
2.24
2.87
2.23
1.95
2.68
2.46
1.58

For each of the variants below, state protein stability index.
1. D4T
2. V20L
3. S15D
4. K21D
5. S2Y
6. F5M
7. F1E
8. P3R

1: 2.07; 2: 2.08; 3: 1.95; 4: 2.23; 5: 4.52; 6: 3.62; 7: 5.32; 8: 1.98

For each of the variants below, state protein stability index.
1. V20A
2. T10W
3. F1N
4. S13M

2.09
2.32
5.19
2.02

For each of the variants below, state protein stability index.
1. L11E
2. S15I
3. T14E
4. S18C
5. F5S
6. K21E
7. S15H

[2.25, 1.73, 2.64, 1.79, 3.19, 2.52, 1.93]

For each of the variants below, state protein stability index.
1. L11M
2. F1D
3. C24Q
4. R8Q
5. S13T
6. T10Y

[2.31, 5.25, 2.87, 2.62, 1.53, 2.27]

For each of the variants below, state protein stability index.
1. D17V
2. T10E

2.06
2.37
